# STUDY_TARGET: T1, cynomolgus monkey B7-H1 expressed on cells (cynomolgus monkey, UniProt G7PSE7 19-290)
# T1 construct: whole, on cells; also called cyno B7-H1; cynomologus B7-H1
# T1 sequence (G7PSE7 entry or part of it): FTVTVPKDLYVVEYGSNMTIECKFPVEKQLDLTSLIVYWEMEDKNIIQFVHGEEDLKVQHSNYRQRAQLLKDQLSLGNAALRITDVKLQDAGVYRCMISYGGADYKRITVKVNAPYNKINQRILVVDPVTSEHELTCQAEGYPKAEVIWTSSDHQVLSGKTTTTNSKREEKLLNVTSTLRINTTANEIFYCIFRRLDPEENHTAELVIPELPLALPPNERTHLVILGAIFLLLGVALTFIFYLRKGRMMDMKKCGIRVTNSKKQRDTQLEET
# EXPERIMENTAL_DETAILS: FMAT, hybridoma supernatant, 293T cells expressing cynomolgus monkey B7-H1
QUANTITY: FL1 × count
# print the numeric value only

Some binders with recorded FL1 × count:
BINDER | FL1 × count
2.9D10 (antibody, V domains shown, Tested as hybridoma supernatant or purified antibody; also called mAb 2.9D10) VH: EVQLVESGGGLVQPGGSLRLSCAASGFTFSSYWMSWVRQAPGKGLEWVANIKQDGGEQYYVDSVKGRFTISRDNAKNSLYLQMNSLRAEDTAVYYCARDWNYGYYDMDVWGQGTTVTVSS VL: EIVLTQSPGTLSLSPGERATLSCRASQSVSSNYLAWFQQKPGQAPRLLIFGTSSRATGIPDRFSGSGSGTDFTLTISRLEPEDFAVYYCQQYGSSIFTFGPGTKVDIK | 298000
3.18G1 (antibody, V domains shown, also called mAb 3.18G1) VH: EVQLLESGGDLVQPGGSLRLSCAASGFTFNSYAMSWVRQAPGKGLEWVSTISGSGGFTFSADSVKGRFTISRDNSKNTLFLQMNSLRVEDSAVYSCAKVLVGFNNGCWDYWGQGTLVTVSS VL: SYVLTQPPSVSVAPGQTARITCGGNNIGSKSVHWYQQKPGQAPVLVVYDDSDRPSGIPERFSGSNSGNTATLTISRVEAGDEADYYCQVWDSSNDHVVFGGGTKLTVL | 682000

# context switch: different binder, same FL1 × count
query: Endpoint output: FL1 × count of 3.15G8 (antibody, IgG4, V domains shown, also called mAb 3.15G8) VH: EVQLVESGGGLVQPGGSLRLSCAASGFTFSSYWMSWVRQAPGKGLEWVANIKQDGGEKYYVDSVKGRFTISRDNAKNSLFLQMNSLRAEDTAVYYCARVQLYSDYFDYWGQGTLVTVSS VL: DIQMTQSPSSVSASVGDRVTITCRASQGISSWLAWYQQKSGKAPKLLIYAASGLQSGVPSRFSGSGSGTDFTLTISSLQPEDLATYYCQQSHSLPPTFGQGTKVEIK . Value?
result: 553000
